Recorded GI50 values for a group of compounds are listed next.
Test system: 786-0
Assay: NCI tumour cell line growth inhibition, 48 h
Activity calls are given as the source filed them. No stated cut-off is given here; in the data, active = GI50 up to about 1.1 µM and inactive = higher. Where a SMILES comes first, the peptide text is derived from it. The star is where a group is joined. Boc = CC(C)(C)OC(=O)*; OBn = c1ccc(CO*)cc1

Observe how each entry below is paired with its result.
CC(O)c1cc2c(s1)C(=O)c1ccsc1C2=O (centres undefined)
0.665 µM (active)
CN(C)CCCNc1ccc2c(=O)n(CCN(C)C)c(=O)n3c4ccccc4c(=O)c1c23
0.0419 µM (active)
Cc1ccc(CC(Cc2ccccc2C)C(=O)O)c(C(=O)O)c1 (centres undefined)
> 100 µM (inactive)
CC(C)(C)c1ccc(-c2nnc(-c3cc(C#N)cc(-c4nnc(-c5ccc(C(C)(C)C)cc5)o4)c3)o2)cc1
50.2 µM (inactive)
COC1/C=C\C=C(/C)C(=O)Nc2cc3nc4ccc(Br)cc4oc-3c(c2=O)CC(C)CC(OC)C(O)C(C)/C=C(\C)C1OC(N)=O (centres undefined)
0.0227 µM (active)

Req: Name the recorded GI50 of CC(C)(C)OC(=O)NC(Cc1ccccc1)C(=O)NC(Cc1ccccc1)C(=O)NCC(=O)OCc1ccccc1 (stereo not drawn) (Boc-Phe-Phe-Gly-OBn; configuration not given here) , assay system 786-0.
Resp: 17.1 µM (inactive)

Req: Name the recorded GI50 of CC(=O)c1nc2ccccc2n1C(C)C(=O)c1ccccc1 (centres undefined) , assay system 786-0.
Resp: 36.9 µM (inactive)

Req: Name the recorded GI50 of CC[C@H](C)N(CCN)C(=O)c1cc2ccccc2c(-c2ccccc2Cl)n1 , assay system 786-0.
Resp: 4.49 µM (inactive)

Req: Name the recorded GI50 of Cc1ccc(C)n1-c1ccccc1C1C=CN(C(=O)OC(C)(C)C)C=C1 , assay system 786-0.
Resp: 31.8 µM (inactive)

* * *

Test system: SF-268
Assay: NCI tumour cell line growth inhibition, 48 h
Activity calls are given as the source filed them. No stated cut-off is given here; in the data, active = GI50 up to about 1.1 µM and inactive = higher.
Recorded GI50 values for a group of molecules are listed next.

Observe how each entry below is paired with its result.
CCN(CC)C(=S)SC1CCOP(=O)(N(CCCl)CCCl)N1C (stereo unspecified)
> 50.7 µM (inactive)
Clc1ccc(-c2cc(-c3cc4cc(Br)ccc4nc3Cl)on2)cc1
13.4 µM (inactive)
Nc1c(C(=O)N/N=C/c2ccccc2)sc(=S)n1-c1ccccc1
> 100 µM (inactive)

Req: Name the recorded GI50 of CCOC(=O)C(=O)CC(=O)C(Br)C(Br)c1ccc(Cl)cc1 (stereo unspecified) , assay system SF-268.
Resp: 34.1 µM (inactive)

Req: Name the recorded GI50 of O=C(O)COCC(=O)N(CCOCCN(Cc1ccccc1)C(=O)COCC(=O)O)Cc1ccccc1 , assay system SF-268.
Resp: > 100 µM (inactive)

Req: Name the recorded GI50 of C/C(=N\NC1=NCCN1)c1cn(C2=NCCN2)nc1C , assay system SF-268.
Resp: > 100 µM (inactive)

* * *

Recorded GI50 values for a group of compounds are listed next.
Test system: 786-0
Assay: NCI tumour cell line growth inhibition, 48 h
The source made the active and inactive calls. No stated cut-off is given here; in the data, active = GI50 up to about 1.1 µM and inactive = higher.

Observe how each entry below is paired with its result.
NC(=O)/N=C(\N)NC(=O)c1ccccc1
> 100 µM (inactive)
C=C(C)C(=O)/N=C(\N)NC#N
37.8 µM (inactive)
C1=N\c2ccc(cc2)/N=C\c2ccccc2OCc2cccc(n2)COc2ccccc2/1
45.5 µM (inactive)
CCCCP(CCCC)(CCCC)=C(C(=O)OC)C(C(=O)OC)=C1SC(C(=O)OC)=C(C(=O)OC)S1
17.8 µM (inactive)
OCC(O)C(O)C(O)c1nn(-c2ccc(F)cc2)c2nc3cc(Cl)c(Cl)cc3nc12 (configuration not stated)
17.3 µM (inactive)
COc1ccc(-c2c(N)[n+]([O-])c3cc(C)c(C)cc3[n+]2[O-])cc1OC
> 100 µM (inactive)

Req: Look up and report measured GI50 for this entry: N#Cc1cccc(N2C(=O)C3C4C=CC(C3C2=O)C2C(=O)N(c3cccc(C#N)c3)C(=O)C42)c1 (configuration not stated)
Resp: 33.1 µM (inactive)

Req: Look up and report measured GI50 for this entry: COc1cc(CNc2cnc3ccc(N)cc3n2)cc(OC)c1OC
Resp: > 100 µM (inactive)

Req: Look up and report measured GI50 for this entry: Cc1ccc2c(c1)SSSSS2
Resp: 15.8 µM (inactive)

* * *

Tested on: SN12C
Experiment: NCI tumour cell line growth inhibition, 48 h
Active and inactive are the calls of the source. No stated cut-off is given here; in the data, active = GI50 up to about 1.1 µM and inactive = higher.
One label from this list, please: 1 = active, 0 = inactive

Study these solved cases before continuing.
COc1ccc2nc3c([N+](=O)[O-])ccc(NCCCN(C)C)c3c(N)c2c1
0
C/C1=C\[C@@H](O)C(=O)/C=C/C=C\c2csc(n2)[C@@H](C)NC(=O)C[C@@]2(CC1)[S+]([O-])SC(=O)[C@]2(C)O (some centres undefined) [LEINAMYCIN]
1
CC(=O)OCC1OC(O/C=C(\CN=[N+]=[N-])C(C)=O)C(OC(C)=O)C(OC(C)=O)C1OC(C)=O (centres undefined)
0

Req: Identify the outcome logged in this assay for the compound shown: Cc1nc(Cl)c2sc(=S)n(-c3ccc(F)cc3)c2n1
Resp: 0

* * *

System: UO-31
Experiment: NCI tumour cell line growth inhibition, 48 h
Active and inactive are the calls of the source. Rule as the data show it: active = GI50 up to about 1.1 µM and inactive = higher.
One label from this list, please: active, inactive

CC1=C(C(=O)Nc2ccccc2)C(c2ccccc2)C(C(=O)Nc2ccccc2)=C(C)N1
inactive

Here's the next entry for you.
Req: Identify the outcome logged in this assay for the compound shown: COc1cc(OC)c(Oc2cccc(OC)c2OC)c(OC)c1
Resp: inactive

* * *

Tested on: MDA-N
Assay: NCI tumour cell line growth inhibition, 48 h
Calls of active or inactive are those of the source. No stated cut-off is given here; in the data, active = GI50 up to about 1.1 µM and inactive = higher.
Recorded GI50 values for a group of compounds are listed next.

O=[N+]([O-])c1c(O)c2nonc2c2nn(-c3ccccc3)nc12
> 100 µM (inactive)
C/C1=C\[C@@H](O)C(=O)/C=C/C=C\c2csc(n2)[C@@H](C)NC(=O)C[C@@]2(CC1)[S+]([O-])SC(=O)[C@]2(C)O (stereo not given in full) [LEINAMYCIN]
0.0101 µM (active)
COc1ccc(/C=C/C(=O)c2cccc(C(=O)/C=C/c3ccc(OC)c(OC)c3)n2)cc1OC
15.7 µM (inactive)
CC1CC(=O)Nc2ccccc2N1C(=O)C1CC1 (stereo not given)
> 100 µM (inactive)
COc1cc2c(cc1OCCCN1C(=O)c3cccc4cccc(c34)C1=O)N=C[C@@H]1CCCN1C2=O
37.2 µM (inactive)

Req: Name the recorded GI50 of CCN(CC)C(=S)SC1CCOP(=O)(N(CCCl)CCCl)N1C (stereo not given) , assay system MDA-N.
Resp: > 100 µM (inactive)

Req: Name the recorded GI50 of C#Cc1cccc(N2C(=O)CCC2=O)c1 , assay system MDA-N.
Resp: 14.2 µM (inactive)

Req: Name the recorded GI50 of CCc1ccc(/C=C/C(=O)C2CN(CC)CCC2(O)/C=C/c2ccc(CC)cc2)cc1 (stereo not given) , assay system MDA-N.
Resp: 3.23 µM (inactive)

Req: Name the recorded GI50 of CN(C)c1ccc(/C=C/c2cc(-c3ccccc3)[n+](C)n2-c2ccccc2)cc1 , assay system MDA-N.
Resp: 0.114 µM (active)

Req: Name the recorded GI50 of C/C(=N\Nc1nc2cc(Cl)ccc2s1)c1ccccn1 , assay system MDA-N.
Resp: 1.73 µM (inactive)

* * *

System: SK-MEL-28
Experiment: NCI tumour cell line growth inhibition, 48 h
Calls of active or inactive are those of the source. Rule as the data show it: active = GI50 up to about 1.1 µM and inactive = higher.
endpointName: GI50

O=C1OCC/C1=N/O
> 100 µM (inactive)
C/C=C\C1OC1(C)c1cc(=O)c2c(C)cc3c(c2o1)C(=O)c1c(O)c(C2CC(C)(N(C)C)C(OC(C)=O)C(C)O2)cc(C2CC(N(C)C)C(O)C(C)O2)c1C3=O (stereo unspecified)
0.0152 µM (active)
ClC1=NSSC1(Cl)Cl
> 10 µM (inactive)
Nc1nc(SCCC/C=C/I)nc2c1ncn2C1OC(COP(=O)(O)O)C(O)C1O (stereo unspecified)
> 100 µM (inactive)
Cn1cnc([N+](=O)[O-])c1Sc1n[nH]c(-c2ccc(Cl)cc2)n1
15.3 µM (inactive)
C=C(C)C(=O)/N=C(\N)NC#N
28.9 µM (inactive)
C[N+]1([O-])[C@H]2CC(OC(=O)[C@H](CO)c3ccccc3)C[C@H]1[C@H]1O[C@H]12 (stereo partly specified)
> 100 µM (inactive)
COc1ccc(OC)c(-c2nc3n(c2/C=C2/C(=O)Nc4ccccc42)CCS3)c1
> 100 µM (inactive)
COc1ccc(/C=C(\NC(=O)c2ccccc2)c2nc3ccccc3[nH]2)cc1OC
> 100 µM (inactive)
CCCCCCCCC(=O)NCCCNCCCNC(=O)CCCCCCCC
12.3 µM (inactive)

# next compound below
Req: Look up and report measured GI50 for this entry: CC(=O)c1nc2ccccc2n1C(C)C(=O)c1ccccc1 (stereo unspecified)
Resp: > 100 µM (inactive)
